measured_target: human NaPi-2a (Homo sapiens, UniProt Q06495)
Sequence (Q06495 whole entry): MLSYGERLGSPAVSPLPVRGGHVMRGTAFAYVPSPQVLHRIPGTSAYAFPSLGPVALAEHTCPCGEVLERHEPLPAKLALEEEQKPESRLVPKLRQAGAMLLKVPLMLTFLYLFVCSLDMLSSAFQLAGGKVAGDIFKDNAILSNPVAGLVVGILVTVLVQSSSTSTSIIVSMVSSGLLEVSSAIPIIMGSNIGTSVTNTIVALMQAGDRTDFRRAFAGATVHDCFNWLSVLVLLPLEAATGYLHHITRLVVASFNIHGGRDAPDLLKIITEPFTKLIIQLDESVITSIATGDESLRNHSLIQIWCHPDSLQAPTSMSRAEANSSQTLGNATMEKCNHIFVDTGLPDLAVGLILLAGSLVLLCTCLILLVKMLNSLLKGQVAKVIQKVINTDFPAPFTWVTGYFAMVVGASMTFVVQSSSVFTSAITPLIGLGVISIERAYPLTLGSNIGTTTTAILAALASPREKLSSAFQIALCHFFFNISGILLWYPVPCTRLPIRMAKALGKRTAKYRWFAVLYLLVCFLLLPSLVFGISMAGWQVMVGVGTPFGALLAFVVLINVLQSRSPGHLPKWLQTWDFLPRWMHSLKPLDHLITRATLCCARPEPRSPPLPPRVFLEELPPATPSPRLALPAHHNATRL
assay_details: Sodium-dependent phosphate uptake of Xenopus oocytes which expressed NaPi-2a (32P)
measurement_setup: phosphate uptake, Xenopus oocytes expressing human NaPi-2a; five concentration levels
IC50 strictly less than 9 µM = Met. Otherwise Not met.

Say whether its IC50 is strictly beneath 9 µM. Entry: Cc1ccc(/C=N/NC(=O)c2cc(N3CCCCC3)ccc2NC(=O)c2cccc(CSCC(O)CO)c2)cc1 (centres unmarked)
Met

* * *

Give measured pIC50 for each item. Keep answers brief.
measured_target: rat NaPi-2b (Rattus norvegicus, UniProt Q9JJ09)
Sequence (Q9JJ09 whole entry): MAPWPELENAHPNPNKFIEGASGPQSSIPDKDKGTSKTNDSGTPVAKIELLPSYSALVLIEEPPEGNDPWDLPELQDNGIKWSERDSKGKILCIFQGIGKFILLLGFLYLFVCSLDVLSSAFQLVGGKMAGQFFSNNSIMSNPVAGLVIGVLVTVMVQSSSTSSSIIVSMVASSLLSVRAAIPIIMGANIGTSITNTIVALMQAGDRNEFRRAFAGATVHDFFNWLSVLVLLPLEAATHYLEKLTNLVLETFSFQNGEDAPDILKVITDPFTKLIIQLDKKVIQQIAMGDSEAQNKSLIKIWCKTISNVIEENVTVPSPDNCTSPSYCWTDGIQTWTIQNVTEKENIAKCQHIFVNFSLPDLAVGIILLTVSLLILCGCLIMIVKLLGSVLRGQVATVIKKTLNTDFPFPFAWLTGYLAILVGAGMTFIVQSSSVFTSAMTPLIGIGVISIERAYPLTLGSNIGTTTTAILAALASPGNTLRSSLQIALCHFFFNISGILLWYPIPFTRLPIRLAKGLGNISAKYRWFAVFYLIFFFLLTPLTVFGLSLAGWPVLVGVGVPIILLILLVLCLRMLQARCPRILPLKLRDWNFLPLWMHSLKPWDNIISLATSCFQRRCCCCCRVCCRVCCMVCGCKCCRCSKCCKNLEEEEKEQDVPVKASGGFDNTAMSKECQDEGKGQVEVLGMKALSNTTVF
assay_details: Sodium-dependent phosphate uptake of Xenopus oocytes which expressed NaPi-2b (32P)
measurement_setup: Xenopus oocytes expressing rat NaPi-2b, 32P radioactive phosphorus; read-out: IC50 (phosphate uptake inhibitory activity)
Give bare numbers, as −log10 of the molar value.

Solved entries:
INSERT INTO assay_data (compound, value_observed) VALUES
  ('CCN(CC)CCNCc1ccc(C(=O)Nc2ccc(Br)cc2C(=O)N/N=C/c2cccc(OC)c2)cc1 [Compound 299]', 5.41),
  ('COc1ccc(C(=O)Nc2ccc(Cl)cc2C(=O)N/N=C/c2cccc(O)c2)cc1OC [Compound 69]', 5.41);

Parameter requested: pIC50. Apply to each item below.
1. CCN(CCO)Cc1ccc(C(=O)Nc2ccc(Cl)cc2C(=O)N/N=C/c2ccc(O)cc2)cc1 [Compound 441]
2. CCN1CC(NCc2ccc(-c3nc4ccc(Br)cc4c(=O)n3/N=C/c3ccc(C)c(C)c3)cc2)CN1CC [Compound 749]

4.40
5.04
